Target: T1, human NGF (human, UniProt P01138 122-241)
T1 construct: also called human Nerve Growth Factor; hN
T1 chain: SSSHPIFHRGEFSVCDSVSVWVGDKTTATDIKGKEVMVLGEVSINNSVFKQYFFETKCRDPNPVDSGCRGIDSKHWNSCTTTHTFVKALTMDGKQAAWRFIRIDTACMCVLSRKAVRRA
Assay protocol: SPR (Biacore), human NGF amine-coupled on chip, antibody injected
Define the label as Satisfied when kon is strictly less than 200000 M⁻¹ s⁻¹ and as Not satisfied in all remaining cases.

- Binder: "humanized mAb can9L12VH_X92218 / can9L12VL (antibody, V domains shown) VH: EVQLVESGGGLVQPGGSLRLSCAASGFTFSSHGMSWVRQAPGKGLEWVSVINSGGSSTYYADSVKGRFTISRDNSKNTLYLQMNSLRAEDTAVYYCAKESVGGWEQLVGPHFDYWGQGTLVIVSS VL: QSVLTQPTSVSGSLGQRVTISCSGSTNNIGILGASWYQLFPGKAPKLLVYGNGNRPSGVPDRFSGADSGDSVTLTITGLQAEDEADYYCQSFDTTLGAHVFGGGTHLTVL"
  Cat: "Not satisfied"
- Binder: "humanized mAb can48L2VH_HM855323.1 / can48L2VL_Z22192.1 (antibody, V domains shown) VH: EVQLVESGGGLVKPGGSLRLSCAASGFTFSTYGINWVRQAPGKGLEWVSYISSGGSSTYYADSVKGRFTISRDNAKNSLYLQMNSLRAEDTAVYYCAGSRYTYAYGGGYEFHFWGQGTLVTVSS VL: QSVVTQPPSVSGAPGQRVTISCTGSTMDIDIFGVSWYQQLPGTAPKLLIYGDGDRPSGVPDRFSGSKSGASASLAITGLQAEDEADYHCQSGDSTLGALAIFGGGTHVTVL"
  Cat: "Satisfied"

Problem: Record humanized mAb can48L2VH_HM855336.1 / can48L2VL_Z22192.1_P8A (antibody, V domains shown) VH: EVQLVESGGGLVQPGGSLRLSCAASGFTFSTYGMNWVRQAPGKGLEWVSYISSGGSSIYYADSVKGRFTISRDNAKNSLYLQMNSLRAEDTAVYYCAGSRYTYAYGGGYEFHFWGQGTLVTVSS VL: QSVVTQPASVSGAPGQRVTISCTGSTMDIDIFGVSWYQQLPGTAPKLLIYGDGDRPSGVPDRFSGSKSGASASLAITGLQAEDEADYHCQSGDSTLGALAIFGGGTHVTVL : is its kon strictly below 200000 M⁻¹ s⁻¹?
Result: Not satisfied

Problem: Confirm or reject: kon of humanized mAb can9L12VH / can9L12VL_M94116_65698 (antibody, V domains shown) VH: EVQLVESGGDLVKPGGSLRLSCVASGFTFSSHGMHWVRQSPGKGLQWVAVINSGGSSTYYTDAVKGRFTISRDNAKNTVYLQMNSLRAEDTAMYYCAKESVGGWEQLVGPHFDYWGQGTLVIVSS VL: QSVLTQPTSVSGAPGQRVTISCTGSTNNIGILGVHWYQQLPGTAPKLLIYGNGNRPSGVPDRFSGADSGDSVSLAITGLQAEDEADYYCQSFDTTLGAHVFGGGTHLTVL lies strictly below 200000 M⁻¹ s⁻¹
Result: Not satisfied

Problem: Is kon strictly under 200000 M⁻¹ s⁻¹ for the entry humanized mAb can48L2VH_HM855336.1 / can48L2VL_Z22192.1 (antibody, V domains shown) VH: EVQLVESGGGLVQPGGSLRLSCAASGFTFSTYGMNWVRQAPGKGLEWVSYISSGGSSIYYADSVKGRFTISRDNAKNSLYLQMNSLRAEDTAVYYCAGSRYTYAYGGGYEFHFWGQGTLVTVSS VL: QSVVTQPPSVSGAPGQRVTISCTGSTMDIDIFGVSWYQQLPGTAPKLLIYGDGDRPSGVPDRFSGSKSGASASLAITGLQAEDEADYHCQSGDSTLGALAIFGGGTHVTVL ?
Result: Not satisfied

Problem: For humanized mAb can48L2VH_HM855323.1 / can48L2VL_Z22192.1_P14L (antibody, V domains shown) VH: EVQLVESGGGLVKPGGSLRLSCAASGFTFSTYGINWVRQAPGKGLEWVSYISSGGSSTYYADSVKGRFTISRDNAKNSLYLQMNSLRAEDTAVYYCAGSRYTYAYGGGYEFHFWGQGTLVTVSS VL: QSVVTQPPSVSGALGQRVTISCTGSTMDIDIFGVSWYQQLPGTAPKLLIYGDGDRPSGVPDRFSGSKSGASASLAITGLQAEDEADYHCQSGDSTLGALAIFGGGTHVTVL , is the recorded kon below the cut-off of 200000 M⁻¹ s⁻¹?
Result: Satisfied
